# Measured On: Prostaglandin G/H synthase 1 (Homo sapiens, UniProt P23219)
# Sequence (P23219 whole entry): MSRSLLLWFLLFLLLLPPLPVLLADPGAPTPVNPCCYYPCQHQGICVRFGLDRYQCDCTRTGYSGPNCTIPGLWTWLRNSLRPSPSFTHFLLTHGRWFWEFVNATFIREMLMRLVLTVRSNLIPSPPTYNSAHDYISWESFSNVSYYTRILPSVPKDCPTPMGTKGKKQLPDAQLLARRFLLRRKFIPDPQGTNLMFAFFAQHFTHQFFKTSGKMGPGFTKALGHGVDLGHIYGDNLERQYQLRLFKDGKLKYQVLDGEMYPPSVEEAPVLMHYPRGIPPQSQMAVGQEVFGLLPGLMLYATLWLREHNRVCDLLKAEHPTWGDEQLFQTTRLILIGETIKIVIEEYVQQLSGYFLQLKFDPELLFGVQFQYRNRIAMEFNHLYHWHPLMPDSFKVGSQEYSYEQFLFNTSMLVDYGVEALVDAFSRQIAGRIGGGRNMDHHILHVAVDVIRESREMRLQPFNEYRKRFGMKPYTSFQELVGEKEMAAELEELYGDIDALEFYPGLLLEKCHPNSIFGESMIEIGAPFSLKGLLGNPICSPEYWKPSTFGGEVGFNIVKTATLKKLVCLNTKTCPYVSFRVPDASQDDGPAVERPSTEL
# Protocol Summary: Inhibition of COX-1 (unknown origin) by enzyme immune assay
Attribute Measured: IC50
Show the value, then the unit it is measured in.

The compound listed as C=C1CC[C@@H]2[C@H](CC2(C)C)C(=C)CC[C@H]1O shows IC50 equal to 395 µM

---

# Measured On: Prostaglandin G/H synthase 2 (Homo sapiens, UniProt P35354)
# Sequence (P35354 whole entry): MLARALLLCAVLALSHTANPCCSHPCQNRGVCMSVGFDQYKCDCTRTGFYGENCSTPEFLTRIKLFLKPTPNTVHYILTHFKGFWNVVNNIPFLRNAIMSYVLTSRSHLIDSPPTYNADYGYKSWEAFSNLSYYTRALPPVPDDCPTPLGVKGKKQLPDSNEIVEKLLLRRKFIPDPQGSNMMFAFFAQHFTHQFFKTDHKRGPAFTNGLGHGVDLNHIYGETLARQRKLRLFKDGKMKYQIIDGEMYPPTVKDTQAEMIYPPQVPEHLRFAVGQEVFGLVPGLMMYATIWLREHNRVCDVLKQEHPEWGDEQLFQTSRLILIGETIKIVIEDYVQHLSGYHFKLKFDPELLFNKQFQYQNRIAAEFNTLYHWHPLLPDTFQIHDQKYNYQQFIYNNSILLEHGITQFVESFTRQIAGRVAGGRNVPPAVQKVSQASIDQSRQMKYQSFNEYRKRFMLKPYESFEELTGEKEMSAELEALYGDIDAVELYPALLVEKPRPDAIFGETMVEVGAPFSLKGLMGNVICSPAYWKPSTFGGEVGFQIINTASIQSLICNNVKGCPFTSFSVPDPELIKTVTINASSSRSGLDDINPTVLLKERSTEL
# Protocol Summary: Inhibition of COX-2 (unknown origin) by enzyme immune assay
Attribute Measured: IC50
Remember to quote the unit after the number.

The molecule C=C1CC[C@@H]2[C@H](CC2(C)C)C(=C)CC[C@H]1O , tested on Prostaglandin G/H synthase 2 (Homo sapiens, UniProt P35354), showed IC50 of 399 µM

---

# Measured On: Prostaglandin G/H synthase 2 (Homo sapiens, UniProt P35354)
# Protocol Summary: Inhibition of COX-2 (unknown origin) by colorimetric method
Record form. Attribute: IC50. Fill in for each entry.
Response body: numeric value in µM, unit text excluded.

Quick note, IC50 for N#Cc1c(-c2ccc(Cl)cc2)csc1NC(=O)CN1CCOCC1 landed at 5.45

molecule O=C1/C(=C/c2ccc(Cl)cc2)N=C(c2ccccc2)N1c1ccc(-c2nc3ccccc3o2)cc1 , IC50 observed: 0.25

---

# Measured On: Prostaglandin G/H synthase 2 (Homo sapiens, UniProt P35354)
# Protocol Summary: Inhibition of recombinant human COX-2 using arachidonic acid as substrate preincubated for 10 mins followed by substrate addition and measured after 2 mins by Ellman's reagent based ELISA
Attribute Measured: pIC50
Please treat pIC50 as minus the base-10 logarithm of the molar concentration.

For record CC1=CCCC2C1(C)CCC(C)C2(C)CC/C(=C\C(=O)O)CO (centres undefined) the listed pIC50 is 4.90

Per the records, this molecule ( CC1=CCCC2C1(C)CCC(C)C2(C)CCC1=CC(=O)OC1O (centres undefined) ) has pIC50 equal to 4.99

Per the record, C=C1C(O)CCC2C1(C)CCC(C)C2(C)CCC1=CC(=O)OC1O (centres undefined) has pIC50 of 4.89

Form field pIC50, entry C=C1CCCC2C1(C)CCC(C)C2(C)CCC1=CC(=O)OC1O (centres undefined) : 5.07

---

# System: Rattus norvegicus
# Protocol Summary: Antiinflammatory activity in Wistar rat carragenan-induced paw edema model assessed as reduction in edema thickness at 50 mg/kg, po and measured after 2 hrs
# Format: functional
# Design: scale not given: the % may be the effect or the level left
Attribute Measured: Activity (%)
Form entry: value (%) — number only.

Summary for this compound, N=C1/C(=N\Nc2ccc(S(N)(=O)=O)cc2)C(N)=NN1c1ccccc1C(=O)O : Activity is 15

Value of Activity reported for the compound CC1=NN(c2ccccc2C(=O)O)C(=O)/C1=N/Nc1ccc(S(N)(=O)=O)cc1 is 72.72

Notebook: Cc1ccc(-c2cc(C(F)(F)F)nn2-c2ccc(S(N)(=O)=O)cc2)cc1 , Activity read as 15.7

For this compound ( CC1=NN(c2ccc(S(N)(=O)=O)cc2)C(=O)/C1=N/Nc1ccc(C(=O)O)cc1 ), measured Activity is 72.72

---

# Measured On: Polyunsaturated fatty acid 5-lipoxygenase (Homo sapiens, UniProt P09917)
# Sequence (P09917 whole entry): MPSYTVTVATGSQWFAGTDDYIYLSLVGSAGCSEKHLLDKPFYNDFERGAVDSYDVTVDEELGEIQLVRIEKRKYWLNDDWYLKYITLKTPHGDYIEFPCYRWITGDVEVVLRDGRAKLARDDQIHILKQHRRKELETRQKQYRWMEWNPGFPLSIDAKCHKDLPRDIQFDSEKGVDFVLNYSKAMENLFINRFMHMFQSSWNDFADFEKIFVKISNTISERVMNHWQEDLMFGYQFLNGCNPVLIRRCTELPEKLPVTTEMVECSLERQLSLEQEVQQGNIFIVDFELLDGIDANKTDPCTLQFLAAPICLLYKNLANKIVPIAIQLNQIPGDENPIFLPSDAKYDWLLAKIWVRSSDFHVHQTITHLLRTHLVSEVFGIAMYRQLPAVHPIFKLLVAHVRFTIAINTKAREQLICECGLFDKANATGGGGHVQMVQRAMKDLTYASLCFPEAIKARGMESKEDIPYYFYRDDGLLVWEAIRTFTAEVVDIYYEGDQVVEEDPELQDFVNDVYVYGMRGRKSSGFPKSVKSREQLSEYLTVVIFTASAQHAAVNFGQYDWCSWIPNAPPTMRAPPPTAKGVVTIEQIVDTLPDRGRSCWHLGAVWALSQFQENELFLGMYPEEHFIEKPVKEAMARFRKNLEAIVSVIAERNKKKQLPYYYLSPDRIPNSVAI
# Protocol Summary: Inhibition of 5-LOX (unknown origin) by enzyme immune assay
Attribute Measured: IC50
Reply with the number and its unit after it.

Query CCCCNC(=O)c1cc(NCc2cc(O)ccc2O)ccc1O yields IC50 of 10.5 µM

The recorded IC50 for O=C(NC1CCCCC1)c1cc(/N=C/c2cc(O)ccc2O)ccc1O is 11.3 µM

Lookup result for CCCCCCNC(=O)c1cc(NCc2cc(O)ccc2O)ccc1O ; measured IC50: 11.9 µM

Lab note: measured IC50 of CC(C)NC(=O)c1cc(N)ccc1O was 3.41 µM

---

# Measured On: Prostaglandin G/H synthase 2 (Homo sapiens, UniProt P35354)
# Protocol Summary: Inhibition of COX-2 (unknown origin) using arachidonic acid as substrate preincubated for 5 mins followed by substrate addition by colorimetric assay
Exercise: state measured pIC50 for each of the compounds provided.
Please treat pIC50 as minus the base-10 logarithm of the molar concentration.

Value of pIC50 reported for the compound CC1=NN(c2ccc(S(N)(=O)=O)cc2)C(=O)/C1=N/Nc1ccc(C(=O)O)cc1 is 6.11

For this compound ( N=C1/C(=N\Nc2ccc(S(N)(=O)=O)cc2)C(N)=NN1c1ccccc1C(=O)O ), measured pIC50 is 5.95

pIC50 reading for CC1=NN(c2ccc(S(N)(=O)=O)cc2)C(=O)/C1=N/Nc1ccc(S(N)(=O)=O)cc1 : 6.18

For reference, reported pIC50 for CC1=NN(c2ccccc2C(=O)O)C(=O)/C1=N/Nc1ccc(S(N)(=O)=O)cc1 stands at 6.14

Reported pIC50 ( N=C1/C(=N\Nc2ccc(S(N)(=O)=O)cc2)C(N)=NN1c1ccc(S(N)(=O)=O)cc1 ) = 6.04

---

# Measured On: Prostaglandin G/H synthase 2 (Homo sapiens, UniProt P35354)
# Protocol Summary: Inhibition of COX-2 (unknown origin) using arachidonic acid as substrate preincubated for 5 mins followed by substrate addition and measured after 20 mins by colorimetric assay
Attribute Measured: IC50 (µM)
State just the number; it will be interpreted in µM.

Memo: CCc1ccc(-c2ccc(-n3cc(CNC(=O)C(=O)c4c[nH]c5ccccc45)nn3)cc2)cc1 , reported IC50: 0.12

The reported value for CC(=O)OC[C@@H]1O[C@@H](n2cc(CNC(=O)C(=O)c3cn(S(=O)(=O)c4ccc(C)cc4)c4ccccc34)nn2)[C@H](OC(C)=O)[C@@H](OC(C)=O)[C@H]1OC(C)=O in terms of IC50 is 0.12

---

Record form. Attribute: IC50. Fill in for each entry.
# Measured On: Prostaglandin G/H synthase 2 (Homo sapiens, UniProt P35354)
# Protocol Summary: Inhibition of COX-2 (unknown origin)
Returns: string containing the number followed by the unit.

// field: IC50; key: O=Cc1ccc(O)c(O)c1 [PROTOCATECHUALDEHYDE] ; value = 19.7 µM

Entry O=C(O)c1ccc(O)c(O)c1 [PROTOCATECHUIC ACID] — recorded IC50 = 25.4 µM

Given item COc1cc(C(=O)O)cc(O)c1O , the value recorded as its IC50 is 23.4 µM

// IC50 value for COc1ccc(-c2nc(-c3cn(C)c4ccccc34)c(C(=O)c3ccc(C#N)cc3)s2)cc1OC : 2.1 µM
